# measured-on: ATP-dependent 6-phosphofructokinase (Trypanosoma brucei brucei)
# method: qHTS Assay to Find Inhibitors of T. brucei phosphofructokinase; also: nearly all actives have a fitted effect of over 60% in size
# measurement-setup: T. brucei PFK, ADP-Glo luminescence; series mostly up to 57.5 µM
# Excerpt: NIH Molecular Libraries Probe Production Network [MLPCN] NIH Chemical Genomics Center [NCGC] Grant: 1 R03 MH092153-01 PI Name: Malcolm Walkinshaw, University of Edinburgh NCGC Assay Overview: Various species of the protozoan family Trypanosomatidae are responsible for a range of serious human diseases in tropical and subtropical areas of the world. […] A luminescence-based assay for T. brucei PFK activity has been developed which uses luciferase to detect production of ADP. […]
In all, about 330,000 compounds went through this assay and about 560 (0.17%) were called active. About 1% were inconclusive and are not listed. Calls follow the shape of the dose curve; as a rule, active = well fitted inhibition curve with a large enough effect; inconclusive = small, poorly fitted or top-dose-only effect, or effect the other way; inactive = flat fitted curve, though single readings scatter. For the sample, actives were picked, then their nearest neighbours and some compounds at random.
Select the correct class. Options are true = active, false = inactive and nothing else.

Problem: // param item: O=C(CCn1nnc2ccccc21)OCC(=O)c1ccc([N+](=O)[O-])cc1 ; yields the recorded call
Result: false

Problem: Next compound up: COc1ccc(N2CCN(S(=O)(=O)c3ccc4c(c3)NC(=O)C(C)C(=O)N4)CC2)cc1 (centres undefined)
Result: false

Problem: Now consider N/C(=N\OC(=O)CCCC(=O)O)c1ncc(C(F)(F)F)cc1Cl .
Result: false

Problem: Would you kindly repeat that for CCCCN1C(=O)C(C)=C(C)C1OCCc1ccc(OC)c(OC)c1 (centres undefined) ?
Result: false

Problem: Check Cc1ccc(C(CC(=O)O)NC(=O)c2ccc(S(=O)(=O)N3CCCC3)cc2)cc1 (centres undefined) too.
Result: false

Problem: Try COc1ccc(C(=O)OCC(=O)Nc2ccc3[nH]c(=O)[nH]c3c2)c(OC)c1OC next.
Result: true

Problem: Also check Cc1ccnc(-n2sc3ccccc3c2=O)n1
Result: true

Problem: Now consider Cc1cnc(C(=O)N2CCCC(C(=O)c3ccc(C(F)(F)F)cc3)C2)cn1 (centres undefined) .
Result: false

Problem: Quick one: O=C(CN1C(=O)NC2(CCCC2)C1=O)Nc1ccc(F)c(F)c1F
Result: false

---

# measured-on: ATP-dependent 6-phosphofructokinase (Trypanosoma brucei brucei)
# method: qHTS Assay to Find Inhibitors of T. brucei phosphofructokinase; also: nearly all actives have a fitted effect of over 60% in size; also: potency is read from the fitted curve at half-maximal effect
# measurement-setup: T. brucei PFK, ADP-Glo luminescence; series mostly up to 57.5 µM
Out of some 330,000 compounds screened, about 560 (0.17%) were called active. About 1% were inconclusive and are not listed. The full list was thinned out, with actives kept by preference.
endpoint-name: Potency

molecule: CCCc1nn(C)c2c(=O)[nH]c(-c3cc(S(N)(=O)=O)ccc3OCC)nc12
Potency: inactive
--
molecule: O=C1CSC(=S)N1c1ccc(O)cc1
Potency: inactive
--
molecule: CS(=O)(=O)N(CC(=O)N1CCOCC1)c1cccc(Cl)c1Cl
Potency: inactive
--
molecule: O=C(CSc1nnc(N2CCOCC2)n1-c1cccc(F)c1)N1CCN(c2ccccn2)CC1
Potency: inactive
--
molecule: O=S(=O)(NC1CCN(S(=O)(=O)c2ccc3c(c2)OCCO3)CC1)c1c(F)cccc1F
Potency: inactive
--
molecule: O=C(COC(=O)CCCN1C(=O)c2cccc3cccc(c23)C1=O)NC1CCS(=O)(=O)C1 (configuration not stated)
Potency: inactive
--
molecule: COc1cccc(N=c2oc3c(C)ncc(CO)c3cc2C(N)=O)c1
Potency: inactive
--
molecule: CC(C)c1ccc(NC(=O)Cn2ncc3ccccc32)cc1
Potency: inactive
--
molecule: O=C(Nc1ccncc1)c1ccc(Cl)c([N+](=O)[O-])c1
Potency: 26.9 µM (active)
--
molecule: CCOc1cc(CNn2c(C)nnc2SCC(=O)NC(C)(C)C)ccc1OCC(=O)NC(C)(C)C
Potency: inactive

Problem: Which Potency is listed for COc1cc(N2C(=O)CSC2=S)cc(OC)c1OC ?
Result: inactive

Problem: And then Cc1cccc(NC(=S)Nc2ccc(Cl)c(Cl)c2)c1 , what is it?
Result: 10.7 µM (active)

These data points were gathered from PubChem BioAssay AID485367.
